All figures here come from paper PMC9574860.

- measured.on: Parkinson's disease protein 7 (PARK7/DJ1) (human, UniProt Q99497)
- Sequence (Q99497 whole entry, looked up): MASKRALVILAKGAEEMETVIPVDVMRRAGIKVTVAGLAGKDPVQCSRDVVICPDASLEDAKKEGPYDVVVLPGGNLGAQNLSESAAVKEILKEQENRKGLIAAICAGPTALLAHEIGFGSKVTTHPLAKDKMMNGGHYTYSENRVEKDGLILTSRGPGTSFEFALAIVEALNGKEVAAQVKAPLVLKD
- method.description: primary screen, percent inhibition; higher = more effect of the substance
- test.parameters: 100 µM
The whole screen tested about 7,900 compounds, of which about 400 (5.1%) showed an effect of 50% or more. The sample holds strong results, similar compounds and a random draw of the others, so the mix is not that of the screen.

| compound | Inhibition % (%) |
| --- | --- |
| CC(CC(O)c1ccc(F)cc1)Nc1ccc(C#N)nc1 (stereo not drawn) | 9.7 |
| C=CC(=O)NC(C)c1c(C)nn(CC(F)(F)F)c1C (stereo not drawn) | 4.48 |
| N#CSc1ccc(NC(=O)CCl)c(Cl)c1 | 55.8 |
| O=C(CCl)Nc1ccc(Cl)cc1F | 49.7 |
| O=C(CCl)Nc1ccc2c(c1)OC1(CCCC1)O2 | 78.4 |
| CC(C)Cn1c(N)c(C(=O)CCl)c(=O)n(C)c1=O | 6.06 |

====

- measured.on: Parkinson's disease protein 7 (PARK7/DJ1) (human)
- method.description: primary screen, percent inhibition; higher = more effect of the substance
- test.parameters: 100 µM
Hit rate of the full screen: of about 7,900 compounds, about 400 (5.1%) showed an effect of 50% or more. What follows is part of a selection rich in strong results, with near analogues and random picks from the rest.
Quick rule: Inhibition % of at least 7% means yes, below that means no.

| molecule | measured.on | class.label |
| --- | --- | --- |
| C=CC(=O)NCC1(C)CCOCC1 | Parkinson's disease protein 7 (PARK7/DJ1) (human) | no |
| COc1cccc(CNC(=O)n2ccnc2)c1 | Parkinson's disease protein 7 (PARK7/DJ1) (human) | yes |
| C=CS(=O)(=O)Nc1ccccc1 | Parkinson's disease protein 7 (PARK7/DJ1) (human) | no |
| O=C(Nc1ccc(CNC(=O)n2ccnc2)cc1)C1CC1 | Parkinson's disease protein 7 (PARK7/DJ1) (human) | yes |
| N#Cc1nc(N2CCCC(N3CCNC3=O)C2)ccc1Cl (stereo not shown) | Parkinson's disease protein 7 (PARK7/DJ1) (human) | no |
| Sc1ccc(Cl)nn1 | Parkinson's disease protein 7 (PARK7/DJ1) (human) | yes |
| CC(C)C(=O)Nc1ccc(CNC(=O)n2ccnc2)cc1 | Parkinson's disease protein 7 (PARK7/DJ1) (human) | no |
| COc1ccccc1CNC(=O)n1ccnc1 | Parkinson's disease protein 7 (PARK7/DJ1) (human) | no |
| FC(F)(F)c1ccc(S)nn1 | Parkinson's disease protein 7 (PARK7/DJ1) (human) | yes |
| C=CC(=O)Nc1ccc2nc(C(F)(F)F)oc2c1 | Parkinson's disease protein 7 (PARK7/DJ1) (human) | yes |
| O=C(N1CCC1c1ccccc1)n1ccnc1 (stereo not shown) | Parkinson's disease protein 7 (PARK7/DJ1) (human) | yes |
| C=CC(=O)N[C@H]1C[C@H](c2ccccc2F)C1 | Parkinson's disease protein 7 (PARK7/DJ1) (human) | yes |

====

- measured.on: Parkinson's disease protein 7 (PARK7/DJ1) (human, UniProt Q99497)
- method.description: primary screen, percent inhibition; read as competition with a fluorescent probe by fluorescence polarization; higher = more effect of the substance
- test.parameters: 100 µM
Screen size: about 7,900 compounds; about 400 (5.1%) showed an effect of 50% or more. For the sample, strong results were picked, then their nearest neighbours and some compounds at random.

| molecule | Inhibition %, % |
| --- | --- |
| CC(CC#N)Sc1ccccc1NC(=O)CCl (stereo not shown) | 10.5 |
| O=C(CCl)N(Cc1ccco1)CC(F)(F)F | 11.9 |
| OC1(C2CO2)CCOCC1 (stereo not shown) | 7.63 |
| CN(C)C(=O)Sc1cnc2nccn2c1 | 3.18 |
| Cc1ccccc1CN(C)C(=O)CCl | 56.6 |
| N#Cc1ccc(Cl)cc1N1CCC(C2OCCO2)CC1 | 2.51 |
| CC1(C)OB(c2cccc(CN3CCCC3)c2)OC1(C)C.Cl | 6.39 |
| CS(=O)(=O)NC1CCCN(C(=O)C=Cc2cccnc2)C1 (stereo not shown) | 5.3 |
| CC(C)N1CCOC(CCl)C1 (stereo not shown) | 5.12 |
| CN(Cc1cccs1)C(=O)CCl | 36.6 |
| C=CC(=O)NC1CSC1(C)C (stereo not shown) | 6.84 |
| Cc1ccc(CN(C)C(=O)Cn2cnc(C#N)n2)c(C)c1 | 3.86 |
| Cc1ccc(Oc2ccc(Cl)cc2NC(=O)CCl)cc1 | 2.17 |
